FYI, the data here is from ChEMBL document CHEMBL5712910.

- Tested on: PEO1
- Measurement Notes: Inhibition of colony formation in human PEO1 cells incubated for 12 days by crystal violet staining based analysis
- Assay type: functional, cell-based
- Condition Details: PEO1, 288 h
Measured Metric: IC50
Give me the value, and tack the unit on after it.

Recorded IC50 for "O=C(c1cc(Cc2n[nH]c(=O)c3ccccc23)ccc1F)N1CCN(C(=O)C2CC2)CC1" , please?
6.4 nM
